# Tested on: KRAS patient-derived spheroids with HUVEC/MSC, viability
# ASSAY NOTES: Anticancer human tumor 941728-121-R-J1-PDC patient-derived lung adenocarcinoma cell line growth inhibition [KRAS2]
# CONDITION: second compound 0.0316 µM; first compound 0.01 µM; active compounds read low
READOUT LABEL: viability, T/C (%)
Response body: numeric value in %, unit text excluded.

Task: Form field: reported viability, T/C of CC(C)n1nc(-c2ccc3oc(N)nc3c2)c2c(N)ncnc21 + C=CC(=O)N1CCN(c2nc(OCC3CCCN3C)nc3c2CCN(c2cccc4cccc(C)c24)C3)CC1CC#N
Result: 17.3

====

# System: KRAS patient-derived spheroids with HUVEC/MSC, viability
# ASSAY NOTES: Anticancer human tumor 941728-121-R-J1-PDC cell line growth inhibition [KRAS2];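 note: spheroids exposed to agents for seven days before readout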
# CONDITION: second compound 3.16 µM; first compound 0.01 µM; active compounds read low
# Excerpt: Multicellular complex tumor spheroid response to RAS pathway inhibitors in combination with a targeted agents in patient-derived cell lines with oncogenic KRAS variants from multiple cancer types A high-throughput screen of multi-cell type tumor spheroids was designed to identify active combinations of targeted small molecules and KRAS pathway inhibitors. […] Compounds. […] If the clinical Cmax for an agent had not been determined, the highest concentration tested was 10 microM. […]
READOUT LABEL: viability, T/C

These solved cases illustrate the format of a correct answer.
>>> val("CCN1CCN(Cc2ccc(Nc3ncc(F)c(-c4cc(F)c5nc(C)n(C(C)C)c5c4)n3)nc2)CC1 + COc1cc2nc(C)nc(NC(C)c3cc(N)cc(C(F)(F)F)c3)c2cc1OC1CCOC1")
"22.7%"
>>> val("CN(C)C/C=C/C(=O)Nc1cc2c(Nc3ccc(F)c(Cl)c3)ncnc2cc1O[C@H]1CCOC1 + C=CC(=O)N1CCN(c2nc(=O)n(-c3c(C)ccnc3C(C)C)c3nc(-c4c(O)cccc4F)c(F)cc23)C(C)C1")
"17.9%"
>>> val("CC1COCCN1c1cc(-c2ccnn2C)c2ccnc(-c3ccn[nH]3)c2n1 (stereo unspecified) + CNCc1ccccc1-c1csc(C(C)Nc2nc(C)nc3cc(OC)c(OC)cc23)c1")
"1.36%"
>>> val("CCN1CCN(Cc2ccc(Nc3ncc(F)c(-c4cc(F)c5nc(C)n(C(C)C)c5c4)n3)nc2)CC1 + CNCc1ccccc1-c1csc(C(C)Nc2nc(C)nc3cc(OC)c(OC)cc23)c1")
"1.57%"
>>> val("CC1COCCN1c1cc(-c2ccnn2C)c2ccnc(-c3ccn[nH]3)c2n1 (stereo unspecified) + COc1cc2nc(C)nc(NC(C)c3cc(N)cc(C(F)(F)F)c3)c2cc1OC1CCOC1")
"36.3%"
>>> val("CC(=O)OC12COC1CC(O)C1(C)C(=O)C(O)C3=C(C)C(OC(=O)C(O)C(NC(=O)OC(C)(C)C)c4ccccc4)CC(O)(C(OC(=O)c4ccccc4)C21)C3(C)C (stereo unspecified) + C=CC(=O)N1CCN(c2nc(OCC3CCCN3C)nc3c2CCN(c2cccc4cccc(C)c24)C3)CC1CC#N")
"27.9%"

Task: Query the reported viability, T/C for KRAS patient-derived spheroids with HUVEC/MSC, viability; item: CN(C)C/C=C/C(=O)Nc1cc2c(Nc3ccc(F)c(Cl)c3)ncnc2cc1O[C@H]1CCOC1 + C=CC(=O)N1CCN(c2nc(OCC3CCCN3C)nc3c2CCN(c2cccc4cccc(C)c24)C3)CC1CC#N
Result: 0.19%

Task: Under KRAS patient-derived spheroids with HUVEC/MSC, viability: viability, T/C value of CN(C)C/C=C/C(=O)Nc1cc2c(Nc3ccc(F)c(Cl)c3)ncnc2cc1O[C@H]1CCOC1 + COc1cc2nc(C)nc(NC(C)c3cc(N)cc(C(F)(F)F)c3)c2cc1OC1CCOC1 ?
Result: 15.4%

Task: Can you look up viability, T/C on KRAS patient-derived spheroids with HUVEC/MSC, viability for CC(C)n1nc(-c2ccc3oc(N)nc3c2)c2c(N)ncnc21 + CNCc1ccccc1-c1csc(C(C)Nc2nc(C)nc3cc(OC)c(OC)cc23)c1 ?
Result: 0.11%

Task: Param readout= viability, T/C; system= KRAS patient-derived spheroids with HUVEC/MSC, viability; entry= CCN1CCN(Cc2ccc(Nc3ncc(F)c(-c4cc(F)c5nc(C)n(C(C)C)c5c4)n3)nc2)CC1 + C=CC(=O)N1CCN(c2nc(=O)n(-c3c(C)ccnc3C(C)C)c3nc(-c4c(O)cccc4F)c(F)cc23)C(C)C1 ; returns value.
Result: 24.2%

Task: Query the reported viability, T/C for KRAS patient-derived spheroids with HUVEC/MSC, viability; item: CC1COCCN1c1cc(-c2ccnn2C)c2ccnc(-c3ccn[nH]3)c2n1 (stereo unspecified) + C=CC(=O)N1CCN(c2nc(OCC3CCCN3C)nc3c2CCN(c2cccc4cccc(C)c24)C3)CC1CC#N
Result: 2.14%
